This collection of values is drawn from patent US20150368338A1.

Target: T1, IFN-αJ1 (human, UniProt P01567 24-189)
T1 construct: also called IFN-α7; alpha J1
Assay: ProteOn, one antigen concentration
// NB: equality with 0.1 nM counts as -1; only Kd strictly below is 1

Use these answered entries as a reference point.
>>> cat("IFWM3306 (antibody, V domains shown, VH IFWH591, VL IFWL1000; converted mAb; also called IFWB3041) VH: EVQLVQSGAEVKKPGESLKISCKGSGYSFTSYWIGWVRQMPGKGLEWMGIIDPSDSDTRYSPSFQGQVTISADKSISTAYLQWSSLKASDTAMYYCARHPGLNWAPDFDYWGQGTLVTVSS VL: DIQMTQSPSSLSASVGDRVTITCRASQSITNFLNWYQQKPGKAPKLLIYFASSLQSGVPSRFSGSGSGTDFTLTISSLQPEDFATYYCQQSLDFPLTFGQGTKVEIK")
1
>>> cat("IFWM3343 (antibody, V domains shown, VH IFWH624, VL IFWL997; converted mAb; also called IFWB3078) VH: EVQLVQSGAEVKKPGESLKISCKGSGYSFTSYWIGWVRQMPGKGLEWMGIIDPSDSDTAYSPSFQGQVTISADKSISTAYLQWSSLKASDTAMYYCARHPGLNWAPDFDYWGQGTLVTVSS VL: DIQMTQSPSSLSASVGDRVTITCRASQSIGSALNWYQQKPGKAPKLLIYFASSLQSGVPSRFSGSGSGTDFTLTISSLQPEDFATYYCQQSYDFPLTFGQGTKVEIK")
-1
>>> cat("IFWM3323 (antibody, V domains shown, VH IFWH591, VL IFWL1053; converted mAb; also called IFWB3058) VH: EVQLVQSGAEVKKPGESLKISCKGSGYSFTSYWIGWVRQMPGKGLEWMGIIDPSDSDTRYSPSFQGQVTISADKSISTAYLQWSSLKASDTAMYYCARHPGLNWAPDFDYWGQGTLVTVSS VL: DIQMTQSPSSLSASVGDRVTITCRASQSITNHLNWYQQKPGKAPKLLIYFASSLQSGVPSRFSGSGSGTDFTLTISSLQPEDFATYYCQQAHNFPLTFGQGTKVEIK")
-1

Turning now to a further binder:
Ask: # check: Kd < 0.1 nM for IFWM3329 (antibody, V domains shown, VH IFWH591, VL IFWL1067; converted mAb; also called IFWB3064) VH: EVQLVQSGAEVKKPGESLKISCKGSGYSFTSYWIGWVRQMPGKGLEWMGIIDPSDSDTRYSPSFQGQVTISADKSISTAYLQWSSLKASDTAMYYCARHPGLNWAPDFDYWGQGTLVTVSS VL: DIQMTQSPSSLSASVGDRVTITCRASQSIRNNNLNWYQQKPGKAPKLLIHWASSLQSGVPSRFSGSGSGTDFTLTISSLQPEDFATYYCQQGYDTPFTFGQGTKVEIK
Result: -1
